Provide the reported pKi of each item.
target: Sodium-dependent noradrenaline transporter (Homo sapiens, UniProt P23975); assay: Displacement of [N-methyl-3H]nisoxetine from human recombinant NET expressed in pig LLCPK cells after 2 hrs by liquid scintillation counting; format: cell-based
Sequence (P23975 whole entry): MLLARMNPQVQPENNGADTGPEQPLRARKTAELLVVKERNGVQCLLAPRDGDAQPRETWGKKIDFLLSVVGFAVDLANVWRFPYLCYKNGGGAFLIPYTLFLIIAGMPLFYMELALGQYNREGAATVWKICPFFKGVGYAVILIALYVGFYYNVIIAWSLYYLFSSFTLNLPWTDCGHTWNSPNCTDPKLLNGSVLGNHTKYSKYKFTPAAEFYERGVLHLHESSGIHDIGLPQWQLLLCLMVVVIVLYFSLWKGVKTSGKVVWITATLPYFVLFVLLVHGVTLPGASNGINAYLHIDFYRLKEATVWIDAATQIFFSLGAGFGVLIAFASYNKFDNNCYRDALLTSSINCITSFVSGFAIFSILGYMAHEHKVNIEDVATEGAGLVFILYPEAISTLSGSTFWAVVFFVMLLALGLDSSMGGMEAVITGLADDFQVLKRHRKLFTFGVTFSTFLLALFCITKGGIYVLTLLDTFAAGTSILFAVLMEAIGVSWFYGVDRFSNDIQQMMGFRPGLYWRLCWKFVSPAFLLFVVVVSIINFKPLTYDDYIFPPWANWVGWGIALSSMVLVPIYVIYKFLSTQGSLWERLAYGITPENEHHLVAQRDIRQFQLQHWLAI
# reply with the number alone; pKi is -log10 of concentration in mol/L

// query Name the recorded pKi of the item COC[C@@]12CNCC[C@]1(c1ccc(C(F)(F)F)c(Cl)c1)C2 (racemic) in your answer.
// result 6.90

// query Name the recorded pKi of the item FC(F)(F)COC[C@@]12CNCC[C@]1(c1ccc(Cl)c(Cl)c1)C2 (racemic) in your answer.
// result 7.10

// query Name the recorded pKi of the item OC[C@@]12CNCC[C@]1(c1ccc(Cl)c(Cl)c1)C2 (racemic) in your answer.
// result 6.80

// query Name the recorded pKi of the item CCOC[C@@]12CNCC[C@]1(c1ccc(Cl)c(Cl)c1)C2 (relative stereo; 30) in your answer.
// result 7.00

// query Name the recorded pKi of the item CCOC[C@@]12CNCC[C@]1(c1ccc(Cl)c(Cl)c1)C2 (racemic) in your answer.
// result 8.00

// query Name the recorded pKi of the item COC[C@@]12CNC[C@H](F)[C@]1(c1ccc(Cl)c(Cl)c1)C2 (racemic) in your answer.
// result 7.00

// query Name the recorded pKi of the item COC[C@@]12CN[C@@H](C)C[C@]1(c1ccc(Cl)c(Cl)c1)C2 (racemic) in your answer.
// result 7.30

// query Name the recorded pKi of the item COC[C@H]1[C@@H]2CNCC[C@@]21c1ccc(Cl)c(Cl)c1 (racemic) in your answer.
// result 5.70

// query Name the recorded pKi of the item Clc1ccc([C@]23CCN4CC[C@]2(C4)C3)cc1Cl (single isomer, unassigned; 49) in your answer.
// result 7.20

// query Name the recorded pKi of the item COC[C@@]12CNCC[C@]1(c1ccc3ccccc3c1)C2 (single isomer, unassigned; 28) in your answer.
// result 8.00

// query Name the recorded pKi of the item COC[C@@]12CN(C)CC[C@]1(c1ccc(Cl)c(Cl)c1)C2 in your answer.
// result 6.10

// query Name the recorded pKi of the item CC#CNC(=O)[C@@]12CNCC[C@]1(c1ccc(Cl)c(Cl)c1)C2 (racemic) in your answer.
// result 6.30

// query Name the recorded pKi of the item Clc1ccc([C@]23CCN4CC[C@]2(C4)C3)cc1Cl (single isomer, unassigned; 50) in your answer.
// result 6.10

// query Name the recorded pKi of the item Clc1ccc([C@]23CNCC[C@H]2C3)cc1Cl (relative stereo; 4) in your answer.
// result 7.20

// query Name the recorded pKi of the item COC[C@@]12CCNC[C@]1(c1ccc(Cl)c(Cl)c1)C2 (racemic) in your answer.
// result 6.70

// query Name the recorded pKi of the item COC[C@@H]1[C@@H]2CCNC[C@]12c1ccc(Cl)c(Cl)c1 (racemic) in your answer.
// result 7.20

// query Name the recorded pKi of the item NC(=O)[C@@]12CNCC[C@]1(c1ccc(Cl)c(Cl)c1)C2 (racemic) in your answer.
// result 6.10

// query Name the recorded pKi of the item COC[C@@]12CNCC[C@]1(c1ccc(Cl)cc1)C2 (racemic) in your answer.
// result 6.70

// query Name the recorded pKi of the item Clc1ccc([C@@]23CCNC[C@@H]2C3)cc1Cl (relative stereo) in your answer.
// result 6.60
